system: T-47D breast; experiment: NCI-60 one-dose screen, 48 h (100 = growth as untreated, 0 = no growth, -100 = all killed); conditions: 10 µM unless noted
The panel holds about 83,000 compounds, 20% with a hit somewhere; the sample as a whole holds those more often.
We label by threshold. Values of growth strictly beneath 80% are rule met. Values of 80% and up are rule not met.

Req: A record lists C=CCn1c(SCC(=O)c2ccc(OC)cc2)nnc1-c1ccc(OC)cc1 . Is its growth below 80%?
Resp: rule not met

Req: What about this compound? Cc1ccc(NC(=O)N[C@@H](Cc2cc(F)cc(F)c2)C(=O)NC2C(=O)N3CCC[C@H]3C(=O)N3CCCC[C@H]3C(=O)N[C@@H](C)C(=O)N3C[C@H](C)C[C@H]3C(=O)O[C@H]2C)c(F)c1 (some centres not stated)
Resp: rule met

Req: What would you report for C=CCn1c(SCC(=O)Nc2cccc(C(=O)/C=C/c3ccccc3Cl)c2)nc2ccccc2c1=O ?
Resp: rule met

Req: CS(=O)c1nccc(-c2c(-c3ccc(F)c(OCc4ccccc4)c3)nc3sccn23)n1 (configuration not stated) , same question.
Resp: rule met

Req: Request: O=C(O)c1ccc(-n2cc(CNc3ccc(Cl)cc3)c(-c3ccc(F)cc3)n2)cc1
Resp: rule not met

====

Below, each entry is listed with its recorded growth.
system: SF-268 CNS; assay: NCI-60 one-dose screen, 48 h (100 = growth as untreated, 0 = no growth, -100 = all killed); settings: 10 µM unless noted
About 83,000 compounds went through this panel and 20% of them were active in at least one assay; those are over-represented in the sample as a whole.
Numbers only; they are read as %.

Req: # input molecule: Nc1ccc(-c2nnc(SCc3ccc(O)c4ncccc34)o2)cc1 ; wanted: its growth
Resp: 1.12

Req: Moving on to the next molecule: Nc1nc(-c2cccc([N+](=O)[O-])c2)c(N=Nc2ccccc2Cl)s1
Resp: 68.4

====

system: OVCAR-4 ovarian; test: NCI-60 one-dose screen, 48 h (100 = growth as untreated, 0 = no growth, -100 = all killed); conditions: 10 µM unless noted
About 83,000 compounds went through this panel and 20% of them were active in at least one assay; those are over-represented in the sample as a whole.
compounds and their reported growth
Provide the reading as a plain figure in %.

Sample answers from the record:
Req: Sample C#C[C@]1(O)CC[C@H]2[C@@H]3CC=C4c5sc(Nc6cccc(Cl)n6)nc5CC[C@]4(C)[C@H]3CC[C@@]21C — what was its growth?
Resp: 47.8

Req: Follow-up item: Cc1nc(-c2cc3ccccc3c(N3CCN(C)CC3)n2)cs1
Resp: 102

Req: And the next one, CCCCCCCCNC(=O)c1ccc(Cn2c(CCCC)nc3c(N)nc4ccccc4c32)cc1 ?
Resp: -54.3

Req: Would you kindly repeat that for C=CCn1c(SCC(=O)Nc2cccc(C(=O)/C=C/c3cc(OC)c(OC)c(OC)c3)c2)nc2ccccc2c1=O ?
Resp: 66.5

Req: Also need C=C(C)[C@@H]1CC[C@]2(C)[C@H](CC=C3[C@@H]4CC(C)(C)CC[C@]4(C(=O)NCC#CCN4CCN(C)CC4)CC[C@]32C)[C@@]1(C)CCC#N , thanks.
Resp: 70.6

Req: Next record, please: O=C(NNc1nc2cc(F)cc(F)c2n2cccc12)c1ncccn1
Resp: 20.9

Req: What do we get for CC1CCc2c(sc3nc(SCC(=O)N/N=C/c4cccc(O)c4O)n(-c4ccccc4)c(=O)c23)C1 (centres undefined) ?
Resp: 84.7

Req: // same read-out, input: Cc1[nH]nc2ccc(-c3nc4cnc(N5CCN(C)CC5)cn4c3Nc3ccc(F)cc3Br)cc12
Resp: 64.6

Req: Try the compound NC(N)=NS(=O)(=O)c1ccc(N=NC2C(=O)NN(c3ccccc3)C2=O)cc1 (centres undefined)
Resp: 104

Req: Queued: COc1ccc(-c2cc(-c3cccc4ccccc34)n3c(n2)nc2ccccc23)cc1OC
Resp: 71.9

// switching to the query compound
Req: Consider the compound CC1OC(O[C@@H]2[C@H](O)C(CO)OC(O[C@H]3COC(O[C@H]4CC[C@]5(C)[C@H]6CC[C@]78OC[C@@]9(CCC(C)(C)C[C@H]97)[C@H](O)C[C@@]8(C)[C@]6(C)CC[C@H]5C4(C)C)[C@@H](OC4OC(CO)[C@@H](O)[C@@H](O)[C@@H]4O)[C@@H]3O)[C@H]2OC2OC[C@@H](O)[C@@H](O)[C@@H]2O)[C@@H](O)[C@@H](O)[C@H]1O (some centres undefined) and give its measured growth.
Resp: -74.1
